experiment-description: Single-dose crossover pharmacokinetic study of omeprazole (40 mg) alone or with clopidogrel (150 mg) in healthy volunteers (CYP2C19 EM and PM), plasma LC-MS
Type: in vivo, human
condition-notes: human, plasma, oral, extensive metabolizers, OMP 40 mg + CLOP 150 mg; read-out: Tmax
property-measured: Tmax (h)

Which value of Tmax has been reported for COc1ccc2nc(S(=O)(=O)Cc3ncc(C)c(OC)c3C)[nH]c2c1 [OMP-S, omeprazole sulfone] in the records?
2.65

Which value of Tmax has been reported for COc1ccc2[nH]c([S+]([O-])Cc3ncc(C)c(OC)c3C)nc2c1 (centres unmarked) [OMP, omeprazole] in the records?
2.9

---

experiment-description: Single-dose crossover pharmacokinetic study of omeprazole (40 mg) alone or with clopidogrel (150 mg) in healthy volunteers (CYP2C19 EM and PM), plasma LC-MS
Assay type: in vivo, human
condition-notes: human, plasma, oral, extensive metabolizers (n = 8), OMP 40 mg + CLOP 150 mg, single dose, plasma; read-out: Cmax
property-measured: Cmax (ng/mL)

(I) COc1ccc2nc(S(=O)(=O)Cc3ncc(C)c(OC)c3C)[nH]c2c1 [OMP-S, omeprazole sulfone]
(II) COc1ccc2[nH]c([S+]([O-])Cc3ncc(C)c(OC)c3C)nc2c1 (centres unmarked) [OMP, omeprazole]
Please state the entry with greater Cmax among I and II . Your choice should be expressed through its label.
II

---

experiment-description: Single-dose crossover pharmacokinetic study of omeprazole (40 mg) alone or with clopidogrel (150 mg) in healthy volunteers (CYP2C19 EM and PM), plasma LC-MS
Assay type: in vivo, human
condition-notes: human, plasma, oral, 40 mg, extensive metabolizers, OMP 40 mg alone
property-measured: AUC(0-inf) (ng·h/mL)

(I) COc1ccc2nc(S(=O)(=O)Cc3ncc(C)c(OC)c3C)[nH]c2c1 [OMP-S, omeprazole sulfone]
(II) COc1ccc2[nH]c([S+]([O-])Cc3ncc(C)c(OC)c3C)nc2c1 (centres unmarked) [OMP, omeprazole]
Field: lower AUC(0-inf) | Options: I / II Your choice should be expressed through its label.
I
(I: 535 ng·h/mL, II: 4040 ng·h/mL)

---

experiment-description: Single-dose crossover pharmacokinetic study of omeprazole (40 mg) alone or with clopidogrel (150 mg) in healthy volunteers (CYP2C19 EM and PM), plasma LC-MS
Assay type: in vivo, human
condition-notes: human, plasma, oral, extensive metabolizers, OMP 40 mg + CLOP 150 mg; read-out: E Half-life (converted)
property-measured: half-life (min)

(A) COc1ccc2[nH]c([S+]([O-])Cc3ncc(C)c(OC)c3C)nc2c1 (centres unmarked)
(B) COc1ccc2nc(S(=O)(=O)Cc3ncc(C)c(OC)c3C)[nH]c2c1
Please state the entry with greater half-life among A and B . Your choice should be expressed through its label.
B
(B: 149 min, A: 68 min)

---

experiment-description: Single-dose crossover pharmacokinetic study of omeprazole (40 mg) alone or with clopidogrel (150 mg) in healthy volunteers (CYP2C19 EM and PM), plasma LC-MS
Type: in vivo, human
condition-notes: human, plasma, oral, 40 mg, extensive metabolizers, OMP 40 mg alone; read-out: E Half-life (converted)
property-measured: half-life (h)

(A) COc1ccc2[nH]c([S+]([O-])Cc3ncc(C)c(OC)c3C)nc2c1 (centres unmarked)
(B) COc1ccc2nc(S(=O)(=O)Cc3ncc(C)c(OC)c3C)[nH]c2c1
Please state the entry with greater half-life among A and B . Your choice should be expressed through its label.
B

---

experiment-description: Single-dose crossover pharmacokinetic study of omeprazole (40 mg) alone or with clopidogrel (150 mg) in healthy volunteers (CYP2C19 EM and PM), plasma LC-MS
Type: in vivo, human
condition-notes: human, plasma, oral, 40 mg, extensive metabolizers, OMP 40 mg alone; read-out: Tmax
property-measured: Tmax (h)

Which value of Tmax has been reported for `COc1ccc2nc(S(=O)(=O)Cc3ncc(C)c(OC)c3C)[nH]c2c1` in the records?
2.72

Which value of Tmax has been reported for COc1ccc2[nH]c([S+]([O-])Cc3ncc(C)c(OC)c3C)nc2c1 (centres unmarked) in the records?
2.8

---

experiment-description: Single-dose crossover pharmacokinetic study of omeprazole (40 mg) alone or with clopidogrel (150 mg) in healthy volunteers (CYP2C19 EM and PM), plasma LC-MS
Type: in vivo, human
condition-notes: human, plasma, oral, extensive metabolizers, OMP 40 mg + CLOP 150 mg
Protocol: A group of twelve healthy volunteers were recruited for this study (divided into two groups), and written informed consent was obtained from all participants included in the study. […] They were physically examined and their medical history was also evaluated. […] OMP and its metabolites were extracted from the plasma using precipitation method and were analyzed using LCMS method. […] Various PK parameters were calculated using the PK Solutions software. […] The AUC0-∞ was determined by trapezoidal rule. […]
property-measured: AUC(0-inf) (ng·h/mL)

(I) COc1ccc2nc(S(=O)(=O)Cc3ncc(C)c(OC)c3C)[nH]c2c1 [OMP-S, omeprazole sulfone]
(II) COc1ccc2[nH]c([S+]([O-])Cc3ncc(C)c(OC)c3C)nc2c1 (centres unmarked) [OMP, omeprazole]
Please state the entry with greater AUC(0-inf) among I and II . Your choice should be expressed through its label.
II
(II: 4900 ng·h/mL, I: 612 ng·h/mL)

---

experiment-description: Single-dose crossover pharmacokinetic study of omeprazole (40 mg) alone or with clopidogrel (150 mg) in healthy volunteers (CYP2C19 EM and PM), plasma LC-MS
Type: in vivo, human
condition-notes: human, plasma, oral, poor metabolizers, OMP 40 mg + CLOP 150 mg; read-out: E Half-life (converted)
property-measured: half-life (h)

(I) COc1ccc2nc(S(=O)(=O)Cc3ncc(C)c(OC)c3C)[nH]c2c1 [OMP-S, omeprazole sulfone]
(II) COc1ccc2[nH]c([S+]([O-])Cc3ncc(C)c(OC)c3C)nc2c1 (centres unmarked) [OMP, omeprazole]
Please state the entry with greater half-life among I and II . Your choice should be expressed through its label.
I

---

experiment-description: Single-dose crossover pharmacokinetic study of omeprazole (40 mg) alone or with clopidogrel (150 mg) in healthy volunteers (CYP2C19 EM and PM), plasma LC-MS
Assay type: in vivo, human
condition-notes: human, plasma, oral, poor metabolizers (n = 4), OMP 40 mg + CLOP 150 mg, single dose, plasma; read-out: Cmax
Procedure: A group of twelve healthy volunteers were recruited for this study (divided into two groups), and written informed consent was obtained from all participants included in the study. […] They were physically examined and their medical history was also evaluated. […] OMP and its metabolites were extracted from the plasma using precipitation method and were analyzed using LCMS method. […] Various PK parameters were calculated using the PK Solutions software. […] The AUC0-∞ was determined by trapezoidal rule. […]
property-measured: Cmax (ng/mL)

(1) COc1ccc2[nH]c([S+]([O-])Cc3ncc(C)c(OC)c3C)nc2c1 (centres unmarked) [OMP, omeprazole]
(2) COc1ccc2nc(S(=O)(=O)Cc3ncc(C)c(OC)c3C)[nH]c2c1 [OMP-S, omeprazole sulfone]
Field: lower Cmax | Options: 1 / 2 Your choice should be expressed through its label.
2

---

experiment-description: Single-dose crossover pharmacokinetic study of omeprazole (40 mg) alone or with clopidogrel (150 mg) in healthy volunteers (CYP2C19 EM and PM), plasma LC-MS
Type: in vivo, human
condition-notes: human, plasma, po, 40 mg, poor metabolizers (n = 4), OMP 40 mg alone, single oral dose, plasma; read-out: Cmax
property-measured: Cmax (ng/mL)

(I) COc1ccc2nc(S(=O)(=O)Cc3ncc(C)c(OC)c3C)[nH]c2c1
(II) COc1ccc2[nH]c([S+]([O-])Cc3ncc(C)c(OC)c3C)nc2c1 (centres unmarked)
Field: lower Cmax | Options: I / II Your choice should be expressed through its label.
I
(I: 444 ng/mL, II: 1410 ng/mL)
